Values were extracted from patent US20240158446A1.

molecular target: GDP-bound KRAS wild-type protein (Homo sapiens); assay: Binding to KRAS by surface plasmon resonance (SPR), Single Cycle Kinetics; conditions: SPR, Single Cycle Kinetics, 1:1 binding model; GDP-bound KRAS wild-type protein; read-out: KRAS KD
Quick reference: pKd of the listed items.
Scale note: pKd = -log10(concentration in M).

| chemical_smiles | pKd |
| --- | --- |
| CCO[C@@H]1C[C@H]2C(=O)NC3(CCC3)C(=O)N(C)[C@@H](C3CCCC3)C(=O)N(C)[C@H](C(=O)N(C)CC)CC(=O)N(C)[C@@H](CC)C(=O)N[C@@H]([C@@H](C)CC)C(=O)N(C)CC(=O)N(C)[C@H]3C/C=C\CCN(C3=O)[C@@H](CC3CCC(F)(F)CC3)C(=O)N(C)CC(=O)N[C@@H](CCc3cc(F)c(C(F)(F)F)c(F)c3)C(=O)N2C1 | 9.89 |
| CCO[C@@H]1C[C@H]2C(=O)NC3(CCCC3)C(=O)N(C)[C@@H](C3CCCC3)C(=O)N(C)[C@H](C(=O)N(C)C)CC(=O)N(C)[C@@H](C)C(=O)N[C@@H]([C@@H](C)CC)C(=O)N(C)CC(=O)N(C)[C@H]3C/C=C\CCN(C3=O)[C@@H](CC3CCCCC3)C(=O)N(C)CC(=O)N[C@@H](CCc3cc(F)c(C(F)(F)F)c(F)c3)C(=O)N2C1 | 9.66 |

Continue with the next molecule.
input: Value lookup for pKd; key = `CCO[C@@H]1C[C@H]2C(=O)NC3(CCC3)C(=O)N(C)[C@@H](C3CCCC3)C(=O)N(C)[C@H](C(=O)N3CCOCC3)CC(=O)N(C)[C@@H](CC(C)C)C(=O)N[C@@H]([C@@H](C)CC)C(=O)N3CC[C@H]3C(=O)N(C)[C@H]3C[C@@H](C)[C@@H](C)CN(C3=O)[C@@H](Cc3ccc(C(F)(F)F)cc3)C(=O)N(C)CC(=O)N[C@@H](CCc3cc(F)c(C(F)(F)F)c(F)c3)C(=O)N2C1`
output: 9.80

* * *

target: GDP-bound KRAS wild-type protein (Homo sapiens, UniProt P01116); assay: Binding to KRAS by surface plasmon resonance (SPR), Single Cycle Kinetics; settings: SPR Single Cycle Kinetics, GDP-bound KRAS wild-type protein, 1:1 binding model; read-out: KRAS KD
Sequence (P01116 whole entry): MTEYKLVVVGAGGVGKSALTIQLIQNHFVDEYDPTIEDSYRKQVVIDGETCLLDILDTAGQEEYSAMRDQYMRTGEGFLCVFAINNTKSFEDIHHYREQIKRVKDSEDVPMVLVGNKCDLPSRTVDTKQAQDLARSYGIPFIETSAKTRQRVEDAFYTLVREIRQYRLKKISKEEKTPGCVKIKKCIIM
Quick reference: Kd of the listed items.
Lab note: write values as number then unit, every time.

Below, 2 compounds whose answers are already recorded.
| compound | target_of_assay | Kd |
| --- | --- | --- |
| CCC[C@H]1C(=O)N[C@@H]([C@@H](C)CC)C(=O)N(C)CC(=O)N(C)[C@H]2C/C=C\CCN(C2=O)[C@@H](Cc2ccc(C)cc2)C(=O)N(C)CC(=O)N[C@@H](CCc2ccc(Cl)c(Cl)c2)C(=O)N2C[C@H](OC(C)C)C[C@H]2C(=O)NC2(CC(C)(C)C2)C(=O)N(C)[C@@H](C(CC)CC)C(=O)N(C)[C@H](C(=O)N(C)C)CC(=O)N1C [PP2537] | GDP-bound KRAS wild-type protein (Homo sapiens, UniProt P01116) | 740 pM |
| CCO[C@@H]1C[C@H]2C(=O)NC3(CC(C)(C)C3)C(=O)N(C)[C@@H](C3CCCC3)C(=O)N(C)[C@H](C(=O)N3CCCCC3)CC(=O)N(C)[C@H]3CCC/C=C/c4ccc(cc4)C[C@@H](C(=O)N(C)CC(=O)N[C@@H](CCc4ccc(Cl)c(Cl)c4)C(=O)N2C1)N1CC/C=C\C[C@@H](C1=O)N(C)C(=O)CN(C)C(=O)[C@H]([C@@H](C)CC)NC3=O [PP2578] | GDP-bound KRAS wild-type protein (Homo sapiens, UniProt P01116) | 270 pM |

input: Value lookup for Kd; key = CCO[C@@H]1C[C@H]2C(=O)NC3(CCC3)C(=O)N(C)[C@@H](C3CCCC3)C(=O)N(C)[C@H](C(=O)N(C)C)CC(=O)N(C)[C@@H](CC)C(=O)N[C@@H]([C@@H](C)CC)C(=O)N(C)CC(=O)N(C)[C@H]3CCCCN(C3=O)[C@@H](Cc3ccc(C(F)(F)F)cc3)C(=O)N(C)CC(=O)N[C@@H](CCc3cc(F)c(C(F)(F)F)c(F)c3)C(=O)N2C1 [PP0693]
output: 16 pM
